system: SK-OV-3 ovarian; assay: NCI tumour cell line growth inhibition, 48 h
TGI values by entry

As a guide, the following entries are already answered.
{"compound": "NC(CCc1nc(-c2ccccc2)cs1)C(=O)O (stereo not drawn)", "TGI": "> 100 µM"}
{"compound": "Cc1ccccc1N=Nc1ccc(N=Nc2c(O)ccc3cc(S(=O)(=O)O)cc(S(=O)(=O)O)c23)c(C)c1", "TGI": "> 100 µM"}
{"compound": "CCCN(CCC)c1ccc(C=O)c(OC)c1", "TGI": "> 100 µM"}
{"compound": "CC(=O)OC1CC(C)c2c1ncnc2N1CCN(C(=O)OC(C)(C)C)CC1 (stereo not drawn)", "TGI": "> 100 µM"}
{"compound": "COc1cc2c(cc1OCCN1C(=O)c3cccc4cccc(c34)C1=O)N=C[C@@H]1CCCN1C2=O", "TGI": "46.5 µM"}
{"compound": "S=C(NNC1=NCCCCN1)Nc1ccccc1", "TGI": "> 100 µM"}

Okay, now this compound:
Identify measured TGI corresponding to `CCCCCn1ncc(-c2c(O)c(O)cc3c(O)c(-c4c(C)cc5c(-c6cnn(CCCCC)n6)c(O)c(O)cc5c4O)c(C)cc23)n1` 2.64 µM

====

tested on: SN12C renal; experiment: NCI tumour cell line growth inhibition, 48 h
quantity: GI50

Known results for molecules:
{"query.smiles": "COc1cc2c(c(OC)c1OC)C(=O)c1c-2n(CCCN)c(=O)c2cc([N+](=O)[O-])ccc12", "GI50": "5.11 µM"}
{"query.smiles": "CC(=O)c1ccc(NCn2nc(-c3ccccc3O)oc2=S)cc1", "GI50": "27 µM"}
{"query.smiles": "CCC(=O)[O-].CCC(=O)[O-].N.N.N.N.[Co+3].[O-][Cl+3]([O-])([O-])[O-]", "GI50": "> 100 µM"}
{"query.smiles": "CCOc1ccccc1N=C(NC(=O)CC)SC", "GI50": "> 10 µM"}

Retrieve GI50 measured for `CCN(CCc1ccc(F)cc1)c1ccc(CO)c(Cl)c1` and print it. 9.27 µM

Answer with reported GI50 of `CN1CCN(c2ccc3nc(-c4ccc5nc(-c6ccc(C(F)(F)F)cc6)[nH]c5c4)[nH]c3c2)CC1` 1.9 µM

Note down GI50 recorded for `CC(C)(C)OC(=O)N(CCCn1c2c(c3ccccc3c1=O)C(=O)c1ccccc1-2)CCN(CCCn1c2c(c3ccccc3c1=O)C(=O)c1ccccc1-2)C(=O)OC(C)(C)C` 39.9 µM

Could you please provide reported GI50 for `CCN(CC)CCNc1ccc(CO)c2sc3ccccc3c(=O)c12` ? Thanks! 6.55 µM [middle of 4 runs]

Give GI50 for the following molecule: `C[C@]1(O)CC(=O)[C@]2(O)C3=C(C=C[C@]2(O)C1)C(=O)c1c(O)cccc1C3=O` 1.72 µM

Annotate the molecule `CO/N=C(\COc1ccc2c(=O)cc(-c3ccccc3)oc2c1)c1ccc(OC)cc1` with its measured GI50. 88.2 µM

Return the recorded GI50 value; entry: `C=C(C)[C@@H]1CC[C@]2(C)[C@H](CC=C3[C@@H]4CC(C)(C)CC[C@]4(C(=O)OC)CC[C@]32C)[C@@]1(C)CC/C(N)=N/O` 1.66 µM

====

Entries and their measured TGI follow.
test system: XF 498 CNS; test: NCI tumour cell line growth inhibition, 48 h

// below: answered compounds
{"compound": "CN1NC(c2ccccc2)=C(C#N)C(=O)CC1c1ccccc1Cl (configuration not stated)", "TGI": "> 100 µM"}
{"compound": "O=S(=O)(O)c1cc(O)c2c(O)c(N=Nc3ccc(/C=C/c4ccc(N=Nc5c(S(=O)(=O)O)cc6cc(S(=O)(=O)O)cc(O)c6c5O)cc4S(=O)(=O)O)c(S(=O)(=O)O)c3)c(S(=O)(=O)O)cc2c1", "TGI": "> 100 µM"}
{"compound": "COc1cc2c(cc1O)CCN[C@@]21CS[C@H]2c3c(OC(C)=O)c(C)c4c(c3C(COC1=O)N1C2C2c3c(cc(C)c(OC)c3O)CC([C@@H]1O)N2C)OCO4 (some centres not stated)", "TGI": "< 1e-06 µM"}
{"compound": "CCCC(=O)C(CC)/C(CCC(=O)N(Cc1ccccc1)Cc1ccccc1)=N/NC(=O)C[N+](C)(C)C (configuration not stated)", "TGI": "> 100 µM"}
{"compound": "CCN(CC)CCNc1ccc(CO)c2sc3ccccc3c(=O)c12", "TGI": "24.5 µM"}
{"compound": "CCC1N2CCCCC2[C@@H]2c3[nH]c4ccccc4c3CCN12 (some centres not stated)", "TGI": "> 100 µM"}

Turning now to a further record.
Consider the compound O=C(Cc1ccccc1)NN1C(=O)C(Cl)C1c1cc(Br)cc(Br)c1O (configuration not stated) and give its recorded TGI. 79.3 µM

====

system: M14 melanoma; experiment: NCI tumour cell line growth inhibition, 48 h
Consider the following molecules and their measured TGI readings.

{"query.smiles": "CN1CCN(c2ccc(NC3=C(Cl)C(=O)c4ncccc4C3=O)cc2C(F)(F)F)CC1", "TGI": "3.67 µM"}
{"query.smiles": "C/C(CC(=O)Nc1ccc(C)cc1)=N\\NC(N)=S", "TGI": "> 100 µM"}

Continue with the next molecule.
Dear colleague, please send me the reported TGI for `CCC(=O)NCC1(c2c[nH]c3ccccc23)SCCS1` when you can. > 100 µM

====

Reported TGI values for the following compounds.
tested on: K-562 leukemia; assay: NCI tumour cell line growth inhibition, 48 h
Just the number please, in µM, no unit attached.

{"compound": "N=C(N)SC1c2ccccc2-c2cc([N+](=O)[O-])ccc21 (stereo not given)", "unit.spec": "µM", "TGI": 22}

Alright, here's another compound for you.
Quickly give me recorded TGI for `O=c1cc2oc3ccc4ccccc4c3cc-2c(=O)[nH]1` 82.1

====

tested on: OVCAR-5 ovarian; test: NCI tumour cell line growth inhibition, 48 h
quantity: TGI

{"query.smiles": "CC(C)(C)c1cc2c(OP(c3ccccc3)c3ccccc3)c(c1)Cc1cc(C(C)(C)C)cc(c1OP(c1ccccc1)c1ccccc1)Cc1cc(C(C)(C)C)cc(c1OP(c1ccccc1)c1ccccc1)Cc1cc(C(C)(C)C)cc(c1OP(c1ccccc1)c1ccccc1)C2", "TGI": "> 50 µM"}
{"query.smiles": "Nc1nonc1-c1noc(-c2nonc2N)[n+]1[O-]", "TGI": "> 100 µM"}
{"query.smiles": "Cc1ccc2c(c1)C(=O)C1(C2)Cc2ccc(C)cc2C1=O", "TGI": "> 100 µM"}

From here, focus on the item given below.
Provide TGI, recorded with OVCAR-5 ovarian, of `COC(=O)c1c(C(=O)OC)c(C(=O)OC)c(C(=O)OC)c1C(=O)OC` > 100 µM

====

test system: HOP-92 NSCLC; assay: NCI tumour cell line growth inhibition, 48 h
quantity: TGI

Field: example entries. Status: answers known.
{"compound": "C[C@H](C(=O)N1C(=O)O[C@@H](c2ccccc2)[C@H]1C)[C@H](c1ccccc1)N(Cc1ccccc1)OC(=O)c1ccccc1", "quantity": "TGI", "test.result": "> 100 µM"}
{"compound": "CCOC(=O)C1C(=O)CC(C)(O)C(C(=O)OCC)C1c1ccc(O)c(OC)c1 (stereo not given)", "quantity": "TGI", "test.result": "> 100 µM"}
{"compound": "N#C/C(=C/c1cccs1)c1cccs1", "quantity": "TGI", "test.result": "> 100 µM"}
{"compound": "O=C(O)C1(C(=O)O)CCN(S(=O)(=O)c2ccccc2)CC1", "quantity": "TGI", "test.result": "> 100 µM"}

Here is another compound to look at.
Read off the recorded TGI for N#CC(C(=N/NC(N)=S)/C(=N\NC(N)=S)C(C#N)c1ccccc1)c1ccccc1 (stereo not given) > 10 µM

====

test system: RXF 393 renal; experiment: NCI tumour cell line growth inhibition, 48 h
# TGI values compiled below

{"molecule": "CN1NC(c2ccccc2)=C(C#N)C(=O)CC1c1ccccc1Cl (stereo not given)", "experimental.system": "RXF 393 renal", "test.result": "> 100 µM"}

Report TGI for `COc1cccc(C(=O)O)c1Cc1cccc2ccccc12` > 100 µM

Give the reported TGI for this molecule. c1ccc(N=C2SC(c3ccccc3)CN2C23CC4CC(CC(C4)C2)C3)cc1 (stereo not given) > 100 µM

Using the record for c1ccc(SCCP(CCP(c2ccccc2)c2ccccc2)c2ccccc2)cc1 (stereo not given) , state its measured TGI. > 100 µM

Kindly indicate its recorded TGI. Item: `COc1ccc(-n2c(C)nc3ccc(N=Cc4ccccc4)cc3c2=O)cc1` > 100 µM

Tell me measured TGI for NC(CCc1nc(-c2ccccc2)cs1)C(=O)O (stereo not given) please. > 100 µM

Tell me its TGI given `CCCN(CCC)c1ccc(C=O)c(OC)c1` as the entry. > 100 µM

Give the measured TGI for `C/C(CC(=O)Nc1ccc(C)cc1)=N\NC(N)=S` > 100 µM
